src = ChEMBL document CHEMBL4513216

Recorded cytotoxicity at 10 µM by entry
Assay: Toxicity liver stage against HepG2, at 10uM
Format: cell-based
Set-up: test concentration 10 uM, cell line HepG2-A16-CD81EGFP
Conditions: human, HepG2-A16-CD81EGFP cells; read-out: INHIBITION
Answer by giving the amount and then stating its unit.

Check out these entries, answers already filled in.
Cc1cnccc1CN1CC[C@@](C)(O)[C@H](Oc2ccccc2)C1; -1.78%
O=C(c1cnc(-c2ccccc2)s1)N1CCC2(CC1)OCCO2; 2.42%
Cc1ccc(CN2CCCC23Cc2ccccc2CNC3=O)cc1 (centres undefined); 8.82%
C1CC(c2noc(C3CC3)n2)N(Cc2nc(C3CC3)no2)C1 (centres undefined); -12.8%
Cc1cccc(Cc2cc(C)nc(C3CCCNC3)c2)c1 (centres undefined); 1.58%

Briefly, cytotoxicity at 10 µM measured for Cc1ccc(-c2cn[nH]c2C2CCCN(c3nccc(N)n3)C2)cc1 (centres undefined) : 15.6%

Briefly, cytotoxicity at 10 µM measured for `Cn1cccc1C(=O)N1C[C@H]2CN(Cc3cccc(F)c3)C[C@H]2C1` : -1.1%

Briefly, cytotoxicity at 10 µM measured for CN1C(=O)CCC12CCC(NCc1ccsc1)CC2 (centres undefined) : 3.56%
